Each recorded value in this set is attributed to a melting point compilation (Tetko et al.; mined from patent text by program, amines drawn as free bases though some values may be those of a salt).

// reported melting point per item
measurement kind: melting point

>>> print(df.to_string())
                                    compound      test_result
 0                   Cc1cc(C(=O)CBr)cc(C)c1O    128 to 131 °C
 1               COc1nc(N)nc2c1ncn2CCC(CO)CO      84 to 86 °C
 2  CC(C)c1cccc(C(C)C)c1NC(=O)[C@H](CCc1ccccc1)NC(=O)OC(C)(C)C    193 to 197 °C
 3  COC(=O)c1cc(-c2cccc(C3=NC(C)(C)Cc4cc(OC)c5c(c43)CC(C)(C)O5)c2)ccc1NC(C)=O    116 to 119 °C
 4          c1cn(Cc2ccc(OCc3nnn[nH]3)cc2)cn1    189 to 191 °C
 5  CN1C(=O)C2C3C=CC(C3)C2(c2ccc(N)cc2)C1=O (centres undefined)    129 to 131 °C
 6  CNC(=O)[C@H]1CN(c2ccc3c(c2)sc(=O)n3C(C)C)C(=O)O1    172 to 174 °C
 7  CC(=NO)C1CCC2C3CC=C4C(C)(C)C(=O)C(C#N)CC4(C)C3CCC12C (centres undefined)    190 to 192 °C
 8  CCn1c(=O)c(-c2c(Cl)cccc2Cl)cc2cnc(N)nc21    207 to 209 °C
 9  CN(C)c1ccc(-c2ccc(C(=O)Nc3cccc(CC(=O)O)c3)o2)cc1    187 to 190 °C
10                          C=CCNc1nc(CO)cs1      74 to 75 °C
11  O=S(=O)(c1ccc(Oc2cccc(C(F)(F)F)c2)cc1)c1ccc(Oc2cccc(C(F)(F)F)c2)cc1  96.5 to 97.5 °C
12               CCOCc1nc(N)c(N=O)c(=O)[nH]1    163 to 165 °C
13  COc1nc(C)cnc1NS(=O)(=O)c1cccnc1-c1ccc(-c2ncon2)cc1    179 to 180 °C
14   COc1ccc(N2C(=O)C(=O)N(c3ccccc3)C2=O)cc1    129 to 131 °C
15   COc1cc(-c2cc(C)no2)cc2oc(=O)c(C)c(C)c12    148 to 150 °C
16  CCCCCCCCCCCCCCCCSCC(CNS(=O)(=O)CCCCl)NC(=O)NC (centres undefined)      79 to 80 °C
17  Cc1c(Cc2cccc(C(F)(F)F)c2)sc2c(-c3cc(C(=O)NCCO)ccn3)cccc12    201 to 202 °C
18  CCOC(=O)C[C@H]1O[C@H](c2ccc(OCc3ccccc3)cc2OC)c2cc(Cl)ccc2N(CC(C)(C)C)C1=O (relative stereo)    130 to 131 °C
19  Cc1noc([C@@]2(C)CC[C@@H](NCC(=O)N3C[C@@H](F)C[C@H]3C#N)C2(C)C)n1    137 to 141 °C
20      Nc1cc(C(F)(F)F)ccc1-c1cc2ccccc2[nH]1    164 to 166 °C
21  COc1cc2[nH]c(N(C)Cc3cccc(C4CCN(C)CC4)c3)nc(=O)c2c(C)c1OC    156 to 158 °C
22  CC(=O)c1cccc(-c2cc3c(=O)n(NS(C)(=O)=O)c(=O)[nH]c3cc2C(F)(F)F)c1    220 to 222 °C
23  O=C(Nc1cccc(-n2nc(C(F)(F)F)cc2C(F)(F)F)c1)c1c(F)cccc1F    142 to 143 °C
24     CCCCOc1ccc2c(O)c(C(=O)NCC(=O)O)ncc2c1    151 to 153 °C
25     O=Cc1ccc(-c2ccc(-c3ccc(C=O)o3)cc2)cc1    173 to 174 °C
26    Nc1c(CC(=O)N2CCC(O)CC2)cccc1Oc1ccccc1F    160 to 161 °C
27     Cc1cc(-c2ccccc2)nc2nc(SCc3ccccc3)nn12    154 to 155 °C
28  COC(=O)c1cc(-c2ncnc(C(F)F)c2Cl)c(F)cc1Cl    100 to 101 °C
29   CCCCOc1ccccc1-c1ncc(C(=O)OCC)c(=O)[nH]1    123 to 125 °C
30                        CCCCCCCCC(=O)N(C)O            29 °C
31  Cc1c(C)c(C)c(C2C(=O)Oc3c2cc(C(C)(C)C)cc3C(C)(C)C)c(C)c1C (centres undefined)    185 to 190 °C
32  CCOC(=O)Cc1c(C(=O)O)c(C)c(C(=O)c2ccc(Cl)cc2)n1C    197 to 198 °C
33                  CCCCCCCCn1c(C)cc2ccccc21    121 to 123 °C

* * *

measurement kind: melting point

                              smiles_string    test_result
0                 O=C(Cn1nnnc1-c1ccoc1)OCCO    91 to 93 °C
1  CC(C)Cc1cc(-c2cccc(C=O)c2)c(S(=O)(=O)NC(C)(C)C)s1    96 to 98 °C
2                   NC(=O)CCCCCc1ccc(Cl)cc1    87 to 89 °C
3  CCN(CC)C(=O)c1c(C(=O)NN=Cc2ccc(Cl)cc2)[nH]c2ccccc12  255 to 257 °C

* * *

Recorded melting point for the following compounds
measurement kind: melting point

In [3]: df
Out[3]:
                                   compound    test_result
0  CCCCCCCCCc1nnc(C2=C(O)c3ccccc3S(=O)(=O)N2C)o1  61.5 to 62 °C
1  O=C1OCCC1Oc1ccc(-c2ccccc2)cc1[N+](=O)[O-] (stereo not given)  117 to 119 °C
2        C=CCOn1c(=O)[nH]c2cc(F)c(F)cc2c1=O  220 to 221 °C
3           CC(=O)Oc1ccc(C(=O)O)cc1C(C)(C)C  123 to 125 °C
4  CCCCc1nc(S(=O)c2ccccc2)c(C(=O)O)n1Cc1ccc(-c2ccccc2C(=O)O)cc1 (stereo not given)         195 °C
5       O=c1[nH]c(CCCn2ccnc2)nc2ccc(Cl)cc12  192 to 194 °C
6  COCC1OC(n2cnc3c(N)nc(Cl)nc32)C(O)C1O (stereo not given)  200 to 202 °C
7                O=Cc1cc(-n2cnnn2)cc2ccoc12  174 to 175 °C
8           COc1ccc(-c2ccc(NN)nn2)cc1OC(C)C         116 °C
9  CCCCOCCOc1ccc(-c2ccc(N3CCC4(C3)OCCO4)c(C=C(C)C(=O)O)c2)cc1  130 to 132 °C

* * *

Entries and their measured melting point follow.
measurement kind: melting point

In [3]: df
Out[3]:
                                   compound    test_result
0  COc1cc(OC)cc(N2CCN(C(=O)Nc3cc(C(C)O)c(C)nc3OC)CC2)c1 (centres undefined)  124 to 126 °C
1    Cc1c(-c2ccccc2)oc2c(OCCCCCBr)cccc2c1=O    75 to 76 °C
2                  CCCc1ncc2cc(Cl)nc(OC)n12    76 to 77 °C
3         O=C(CCc1ccc(NC(=O)c2ccccc2)cc1)NO  189 to 191 °C

* * *

Form field: melting point (one value per entry).
measurement kind: melting point

>>> print(df.to_string())
                                   molecule    test_result
0  COc1cccc(Nc2cccc3c2C(=O)N(C2CCC(=O)NC2=O)C3=O)c1 (stereo not drawn)  210 to 212 °C
1  CCNC(=O)N1CCc2ccc(S(=O)(=O)NC(=O)NC3CCCCC3)cc2CC1  158 to 160 °C
2  CC(=O)N1CCc2sc(/C=C3/C(=O)N4C(C(=O)O)=CS[C@H]34)cc2C1         362 °C
3  CC1(C)N=C(SCc2cccc3cccnc23)N=C1SCc1cccc2cccnc12  101 to 104 °C
4  Cc1ccc2c(NCc3ccc(NC(=O)C4CCN(Cc5ccc(C(F)(F)F)cc5)CC4)cc3)nc(N(C)C)nc2c1  126 to 128 °C
5  COc1ccc(CCNC(=O)CCCCC(=O)NCCc2ccc(OC)c(OC)c2CCc2cccc(OC)c2)cc1  153 to 155 °C
6  N#Cc1ccc(Oc2cc3c(cc2Cl)C=C(C(=O)O)C(C(F)(F)F)O3)cc1 (stereo not drawn)  212 to 216 °C
7  COc1cc(Nc2nc3cccc(-c4cccc(NC(C)=O)c4)c3o2)cc(OC)c1OC  170 to 172 °C
